// reported CC50 (concentration to cause poisoning in half cells) per item
# Tested on: 2.2.15 cells
# measurement notes: Drug TC50 by MTT detection
# Format: cell-based
# particulars: Reed-Muench
property label: CC50 (concentration to cause poisoning in half cells)

>  <compound>
N#Cc1ccc(C(=O)N2CC3CCCN4CCCC(C34)C2CCCC(=O)O)cc1 (stereo not drawn)

>  <value>
>1000 µg/mL

$$$$
>  <compound>
Cc1ccccc1CN1CC2CCCN3CCCC(C1CCCC(=O)O)C23 (stereo not drawn)

>  <value>
418.3 µg/mL

$$$$
>  <compound>
O=C(O)CCC[C@@H]1[C@H]2CCCN3CCC[C@@H](CN1Cc1ccccc1F)[C@@H]23

>  <value>
620.68 µg/mL

$$$$
>  <compound>
Cc1ccc([N+](=O)[O-])cc1C(=O)N1C[C@@H]2CCCN3CCC[C@@H]([C@H]23)[C@H]1CCCC(=O)O

>  <value>
>1000 µg/mL

$$$$
>  <compound>
COc1ccc(S(=O)(=O)N2CC3CCCN4CCCC(C34)C2CCCC(=O)O)cc1 (stereo not drawn)

>  <value>
>1000 µg/mL

$$$$
>  <compound>
O=C(O)CCCC1C2CCCN3CCCC(CN1Cc1cccnc1)C23 (stereo not drawn)

>  <value>
>1000 µg/mL

$$$$
>  <compound>
O=C(O)CCCC1C2CCCN3CCCC(CN1Cc1ccccn1)C23 (stereo not drawn)

>  <value>
374.5 µg/mL

$$$$
>  <compound>
O=C(O)CCCC1C2CCCN3CCCC(CN1Cc1ccncc1)C23 (stereo not drawn)

>  <value>
>1000 µg/mL

$$$$
>  <compound>
COc1ccc(CN2CC3CCCN4CCCC(C2CCCC(=O)O)C34)cc1 (stereo not drawn)

>  <value>
>1000 µg/mL

$$$$

###

# System: Hsc70
# measurement notes: Detection of Hsc70 gene expression level upon action of compound on 2.2.15 cells (real-time fluorescent quantified PCR)
# Format: cell-based
# Design: unit not given here
# particulars: single value, concentration not given; values coincide with Table 1 relative OMT ratios

>  <compound>
O=C(O)CCCC1C2CCCN3CCCC(CN1Cc1ccc(Cl)cc1)C23 (stereo not shown)

>  <Hsc70 down-regulation rate (%)>
0.62

$$$$
>  <compound>
O=C(O)CCC[C@@H]1[C@H]2CCCN3CCC[C@@H](CN1Cc1cscn1)[C@@H]23

>  <Hsc70 down-regulation rate (%)>
0.92

$$$$
>  <compound>
O=C(O)CCCC1C2CCCN3CCCC(CN1Cc1cccc(Cl)c1Cl)C23 (stereo not shown)

>  <Hsc70 down-regulation rate (%)>
0.27

$$$$
>  <compound>
O=C(O)CCCC1C2CCCN3CCCC(CN1Cc1ccccc1Cl)C23 (stereo not shown)

>  <Hsc70 down-regulation rate (%)>
0.32

$$$$
>  <compound>
O=C(O)CCCC1C2CCCN3CCCC(CN1Cc1ccc(Br)cc1)C23 (stereo not shown)

>  <Hsc70 down-regulation rate (%)>
−5.78

$$$$
>  <compound>
O=C(O)CCC[C@@H]1[C@H]2CCCN3CCC[C@@H](CN1Cc1ccc(Cl)c(Cl)c1)[C@@H]23

>  <Hsc70 down-regulation rate (%)>
−2.92

$$$$
>  <compound>
Cc1ccc([N+](=O)[O-])cc1C(=O)N1C[C@@H]2CCCN3CCC[C@@H]([C@H]23)[C@H]1CCCC(=O)O

>  <Hsc70 down-regulation rate (%)>
−0.86

$$$$
